# procedure summary: Saccharide concentration and osmotic pressure of hypertonic solutions (measured values)
# Assay type: physicochemical
# conditions used: saccharide concentration 0.45 M in culture medium
property: Osmotic pressure (mOsm/kg)

compound	unit symbol	Osmotic pressure
C[N+](C)(C)CC(=O)[O-] [trimethylglycine]	mOsm/kg	763
OC[C@H]1O[C@@](CO)(O[C@H]2O[C@H](CO)[C@@H](O)[C@H](O)[C@H]2O)[C@@H](O)[C@@H]1O [sucrose]	mOsm/kg	779
OC[C@@H](O)[C@@H](O)[C@H](O)[C@@H](O)CO [sorbitol]	mOsm/kg	748
OC[C@@H](O)[C@H](O)[C@@H](O)CO [xylitol]	mOsm/kg	779
